Where do these numbers come from? They come from ChEMBL document CHEMBL1759963.

- System: Mycobacterium tuberculosis
- assay_name: Antitubercular activity against Mycobacterium tuberculosis H37Rv ATCC 27294 at 6.25 ug/ml by microplate alamar blue assay
- Assay type: functional
Classify by measured inhibition at 6.25 µg/mL: label 1 if it is equal to or exceeds 60%, label 0 if it is smaller.

> print(dat)
                             compound.smiles                assay.target  answer.label
 1  N#Cc1c(/C=C/c2c3ccccc3cc3ccccc23)c2cc(Cl)ccc2oc1=O  Mycobacterium tuberculosis       label 1
 2  N#Cc1c(/C=C/c2cccc([N+](=O)[O-])c2)c2cc(Cl)ccc2oc1=O  Mycobacterium tuberculosis       label 1
 3  N#Cc1c(/C=C/c2cccc(Cl)c2)c2cc(Cl)ccc2oc1=O  Mycobacterium tuberculosis       label 1
 4  COc1ccc(/C=C/c2c(C#N)c(=O)oc3ccc(Cl)cc23)cc1  Mycobacterium tuberculosis       label 0
 5  COc1ccccc1/C=C/c1c(C#N)c(=O)oc2ccc(Cl)cc12  Mycobacterium tuberculosis       label 0
 6    N#Cc1c(/C=C/c2ccccc2)c2cc(Cl)ccc2oc1=O  Mycobacterium tuberculosis       label 0
 7  CN(C)c1ccc(/C=C/c2c(C#N)c(=O)oc3ccc(Cl)cc23)cc1  Mycobacterium tuberculosis       label 1
 8  N#Cc1c(/C=C/c2ccccc2[N+](=O)[O-])c2cc(Cl)ccc2oc1=O  Mycobacterium tuberculosis       label 0
 9  COc1ccc(/C=C/c2c(C#N)c(=O)oc3ccc(Cl)cc23)cc1OC  Mycobacterium tuberculosis       label 1
10  N#Cc1c(/C=C/c2cccc(Br)c2)c2cc(Cl)ccc2oc1=O  Mycobacterium tuberculosis       label 0
11  COc1cccc(/C=C/c2c(C#N)c(=O)oc3ccc(Cl)cc23)c1  Mycobacterium tuberculosis       label 0
12     N#Cc1c(/C=C/c2ccco2)c2cc(Cl)ccc2oc1=O  Mycobacterium tuberculosis       label 1
13  N#Cc1c(/C=C/c2cccc(Oc3ccccc3)c2)c2cc(Cl)ccc2oc1=O  Mycobacterium tuberculosis       label 1
14  COc1cc(/C=C/c2c(C#N)c(=O)oc3ccc(Cl)cc23)cc(OC)c1OC  Mycobacterium tuberculosis       label 1
